target: T1, apical domain of human CD71 (human, UniProt P02786 189-383, limits assumed); assay: primary ELISA of colonies, luminescence
T1 construct: domain: apical domain; the panning antigen was 30% biotinylated; also called human apical domain of CD71
T1 sequence (P02786 189-383 limits assumed): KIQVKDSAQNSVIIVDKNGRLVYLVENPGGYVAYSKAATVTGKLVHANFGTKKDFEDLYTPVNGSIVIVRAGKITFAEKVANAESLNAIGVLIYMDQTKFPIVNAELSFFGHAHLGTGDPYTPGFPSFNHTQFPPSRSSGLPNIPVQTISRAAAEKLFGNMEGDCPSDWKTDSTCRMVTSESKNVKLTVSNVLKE
reported_endpoint: Apical domain, RLU (RLU)
Just the number please, in RLU, no unit attached.

Please review the following examples before continuing.
CD71-binding FN3 domain of SEQ ID NO: 102 (designed binder, Screen 1 hit, tested from colonies in the primary ELISA; not shown: C-terminal poly-histidine tag added to each FN3 domain) MLPAPKNLVVSRVTEDSARLSWTAPDAAFDSFDIGYTEYGGYGEAIILQVPGSERSYDLTGLKPGTEYWVLIQGVKGGGSSVPLVAYFTT    5.87e+06
CD71-binding FN3 domain of SEQ ID NO: 118 (designed binder, Screen 1 hit, tested from colonies in the primary ELISA; not shown: C-terminal poly-histidine tag added to each FN3 domain) MLPAPKNLVVSRVTEDSARLSWTAPDAAFDSFYIAYAEPRPDGEAITLWVPGSERSYDLTGLKPGTEYSVTIHGVKGGLLSSPLSAIFTT    3.75e+06
CD71-binding FN3 domain of SEQ ID NO: 101 (designed binder, Screen 1 hit, tested from colonies in the primary ELISA; not shown: C-terminal poly-histidine tag added to each FN3 domain) MLPAPKNLVVSRVTEDSARLSWTAPDAAFDSFGIGYWERRWYGEAIVLTVPGSERSYDLTGLKPGTEYEVTIRGVKGGGYSGPLSAIFTT    542000
CD71-binding FN3 domain of SEQ ID NO: 108 (designed binder, Screen 1 hit, tested from colonies in the primary ELISA; not shown: C-terminal poly-histidine tag added to each FN3 domain) MLPAPKNLVVSRVTEDSARLSWTAPDAAFDSFYIAYAEPRPDGEAILLQVPGSERSYDLTGLKPGTEYSVLIHGVKGGLLSSPLVAKFTT    5.77e+06

Problem: Sample CD71-binding FN3 domain of SEQ ID NO: 106 (designed binder, Screen 1 hit, tested from colonies in the primary ELISA; not shown: C-terminal poly-histidine tag added to each FN3 domain) MLPAPKNLVVSRVTEDSARLSWTAPDAVFDSFYIAYAEPRPDGEAIGLYVPGSERSYDLTGLKPGTEYSVLIHGVKGGLLSSPLTASFTT — what was its Apical domain, RLU?
Solution: 4.81e+06

Problem: Please give the result for CD71-binding FN3 domain of SEQ ID NO: 103 (designed binder, Screen 1 hit, tested from colonies in the primary ELISA; not shown: C-terminal poly-histidine tag added to each FN3 domain) MLPAPKNLVVSRVTEDSARLSWTAPDAAFDSFYIAYAEPRPDGEAIILGVPGSERSYDLTGLKPGTEYSVLIHGVKGGLLSSPLSAYSTT too.
Solution: 5.3e+06

Problem: CD71-binding FN3 domain of SEQ ID NO: 107 (designed binder, Screen 1 hit, tested from colonies in the primary ELISA; not shown: C-terminal poly-histidine tag added to each FN3 domain) MLPAPKNLVVSRVTEDSARLSWTAPDAAFDSFFIGYLEPQPPGEAIGLQVPGSERSYDLTGLKPGTEYNVTIQGVKGGFPSMPLSAIFTT ?
Solution: 4.23e+06

Problem: What do you have for CD71-binding FN3 domain of SEQ ID NO: 117 (designed binder, Screen 1 hit, tested from colonies in the primary ELISA; not shown: C-terminal poly-histidine tag added to each FN3 domain) MLPAPKNLVVSRVTEDSARLSWTAPDAAFDSFFIGYLEPQPPGEAIWLLVPGSERSYDLTGLKPGTEYNVTIQGVKGGFPSTPLSAIFTT ?
Solution: 5.33e+06

Problem: Also need CD71-binding FN3 domain of SEQ ID NO: 110 (designed binder, Screen 1 hit, tested from colonies in the primary ELISA; not shown: C-terminal poly-histidine tag added to each FN3 domain) MLPAPKNLVVSRVTEDSARLSWTAPDAAFDSFHIVYHEPRPSGEAIYLEVPGSERSYDLTGLKPGTEYEVGIVSVKGGDLSVPLRAHFTT , thanks.
Solution: 6e+06
